Experiment: Part A (SAD): plasma PK of Formula (IIa) and its metabolites after a single oral dose of Formula (IIa), fed or fasted
Type: in vivo, human
Conditions: human, in vivo, po, 200 mg, single oral 200 mg Formula (IIa), fasted, plasma, N=1
Attribute measured: Cmax (ng/mL)
Give a bare numeral; the unit ng/mL is implied.

Measured Cmax, CO[C@H]1C(OP(=O)(OC[C@H]2O[C@@H](n3cnc4c(N)ncnc43)CC2O)SCOC(=O)OC(C)C)[C@@H](CO)O[C@H]1n1ccc(=O)[nH]c1=O (stereo partly shown) : 0.577

---

Assay: Part B (MAD): plasma PK of Formula (IIa) and its metabolites after once-daily oral Formula (IIa) for 7 days, fasted
Format: in vivo, human
Conditions: human, in vivo, po, 400 mg, 400 mg Formula (IIa) QD oral, fasted, Day 7, plasma, arithmetic mean (CV %); read-out: AUC0-t
Attribute measured: AUC(0-t) (ng·h/mL)
Give a bare numeral; the unit ng·h/mL is implied.

Measured AUC(0-t), CO[C@H]1C(OP(=O)(OC[C@H]2O[C@@H](n3cnc4c(N)ncnc43)CC2O)SCOC(=O)OC(C)C)[C@@H](CO)O[C@H]1n1ccc(=O)[nH]c1=O (stereo partly shown) [Formula (IIa)] : 3.1
